System: TKU015 nattokinase
Type: biochemical, Pseudomonas sp. TKU015
condition.summary: metal ion or inhibitor added
quantity: Effect on TKU015 nattokinase activity

[Mg+2] :: does not
[Ca+2] :: does not
[Cu+2] :: does not

###

System: TKU015 nattokinase
assay.details: Influence of organic solvents on TKU015 nattokinase activity at different temperature (ten days)
Type: biochemical, Pseudomonas sp. TKU015
condition.summary: mixed with solvent, placed ten days at 25 ° C.; 100% represents 15 FU/mL
Exercise: state measured Relative activity(%) TKU015 nattokinase for each of the compounds provided.
Write down the numeric answer in % and omit the unit.

Query: Give me measured Relative activity(%) TKU015 nattokinase, please, for this compound: CC(C)O [isopropylalcohol]
Reply: 120

Query: Answer with reported Relative activity(%) TKU015 nattokinase of CCOC(C)=O [ethyl acetate]
Reply: 92

Query: Answer with the recorded Relative activity(%) TKU015 nattokinase for the compound listed here: C[S+](C)[O-] [DMSO]
Reply: 94

Query: Look up and report measured Relative activity(%) TKU015 nattokinase for this entry: CO [methanol]
Reply: 90

Query: Let me know recorded Relative activity(%) TKU015 nattokinase for CCO [ethanol] , thanks.
Reply: 88

Query: Tell me its Relative activity(%) TKU015 nattokinase given CC(C)CCO [isoamylalcohol] as the entry.
Reply: 100

Query: Supply measured Relative activity(%) TKU015 nattokinase of CN(C)C=O [DMF, N,N-dimethylformamide] in your reply.
Reply: 98

Query: Read off the recorded Relative activity(%) TKU015 nattokinase for CC(C)=O [acetone]
Reply: 108

Query: Item Cc1ccccc1 [toluene] : provide Relative activity(%) TKU015 nattokinase
Reply: 100

Query: Query Relative activity(%) TKU015 nattokinase for CC#N [acetonitrile]
Reply: 80

Query: Give the reported Relative activity(%) TKU015 nattokinase for this compound. CCOCC [ethyl ether]
Reply: 70
